molecules and their reported inhibition at 10 µM
# TESTED_SYSTEM: UniProt P11712
# Sequence (P11712 whole entry): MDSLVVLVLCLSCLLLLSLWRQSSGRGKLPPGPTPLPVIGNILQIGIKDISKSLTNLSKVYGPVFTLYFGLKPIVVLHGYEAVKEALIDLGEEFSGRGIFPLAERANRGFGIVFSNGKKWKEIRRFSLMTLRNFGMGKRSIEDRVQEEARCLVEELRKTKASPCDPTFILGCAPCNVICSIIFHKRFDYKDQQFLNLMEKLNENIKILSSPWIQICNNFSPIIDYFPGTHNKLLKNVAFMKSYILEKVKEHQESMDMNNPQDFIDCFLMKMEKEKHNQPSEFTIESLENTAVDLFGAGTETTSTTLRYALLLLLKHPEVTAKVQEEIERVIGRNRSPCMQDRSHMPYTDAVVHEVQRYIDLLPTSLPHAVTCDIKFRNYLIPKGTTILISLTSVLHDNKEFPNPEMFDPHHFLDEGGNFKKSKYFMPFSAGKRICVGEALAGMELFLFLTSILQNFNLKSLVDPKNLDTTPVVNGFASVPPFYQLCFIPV
# ASSAY_PROCEDURE: Cyp inhibition 2C9
# Type: in vitro ADME

Look over these answered cases.
                                   molecule  reported_result
0   COc1ccc(CNC(=O)c2c(Cl)ccnc2OCC2CC2)cc1F             5.7%
1  COc1ccc(CNC(=O)c2c(Cl)cc[n+]([O-])c2OCC2CC2)cc1F             -12%

Okay, next one:
Quick one: inhibition at 10 µM for O=C(NCc1ccc2c(c1)OCO2)c1c(Cl)cccc1Cl [Control 1, reference compound] ? 16.3%

----------
# TESTED_SYSTEM: human ALDH2 wild type (Homo sapiens, UniProt P05091)
# Construct: His-tag (pTrcHis vector) (N); made in house; host or cells: E. coli BL21
# Sequence (P05091 18-517): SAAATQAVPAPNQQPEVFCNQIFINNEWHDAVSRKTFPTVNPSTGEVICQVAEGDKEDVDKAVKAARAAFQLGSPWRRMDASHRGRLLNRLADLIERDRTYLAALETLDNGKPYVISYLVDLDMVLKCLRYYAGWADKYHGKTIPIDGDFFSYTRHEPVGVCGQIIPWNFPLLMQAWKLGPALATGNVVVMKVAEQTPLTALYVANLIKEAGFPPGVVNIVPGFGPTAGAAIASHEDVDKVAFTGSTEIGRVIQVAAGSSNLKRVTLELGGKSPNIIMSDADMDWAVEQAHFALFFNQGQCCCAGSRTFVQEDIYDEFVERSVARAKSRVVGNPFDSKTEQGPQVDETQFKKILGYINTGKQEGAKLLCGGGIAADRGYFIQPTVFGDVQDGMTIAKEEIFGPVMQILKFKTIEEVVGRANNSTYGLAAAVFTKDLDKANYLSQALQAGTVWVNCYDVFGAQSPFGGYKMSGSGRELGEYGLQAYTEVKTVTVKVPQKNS
# ASSAY_PROCEDURE: ALDH2 enzymatic assay (NADH at 340 nm), recombinant wild type enzyme
# Assay type: biochemical
# Design: key: −: no activation or inhibition; +: activation less than control 1; ++: activation similar to control 1, within 10%; +++: activation more than control 1 and less than control (compound 161); ++++: activation similar to compound 161, within 10%
# EXPERIMENTAL_SETUP: activation relative to benchmarks control 1 and compound 161
PROPERTY_LABEL: ALDH2 (wild-type)

Look over these answered cases.
>>> print(df.to_string())
                                   molecule  reported_result
0  COc1ccc(CNC(=O)c2c(Cl)cccc2NCc2ccc(Cl)cc2)cc1F                −
1  O=C(NCc1ccc2c(c1)OCO2)c1c(Cl)cccc1Cl [Control 1, reference compound]               ++
2  COc1ccc(CNC(=O)c2c(Cl)cccc2OCC(C)N(C)C)cc1F (centres unmarked)               ++
3  CS(=O)(=O)c1ccc(CNC(=O)c2c(Cl)ccnc2OCC2CC2)cc1F                +

Quick one: ALDH2 (wild-type) for COc1ccc(CNC(=O)c2c(Cl)ccnc2Oc2ccccc2)cc1F ? ++

----------
# TESTED_SYSTEM: human ALDH2*2 recombinant mutant enzyme (E487K) (Homo sapiens, UniProt P05091, E504K)
# Construct: His-tag (pTrcHis vector) (N); made in house; host or cells: E. coli BL21
# Sequence (P05091 18-517 E504K): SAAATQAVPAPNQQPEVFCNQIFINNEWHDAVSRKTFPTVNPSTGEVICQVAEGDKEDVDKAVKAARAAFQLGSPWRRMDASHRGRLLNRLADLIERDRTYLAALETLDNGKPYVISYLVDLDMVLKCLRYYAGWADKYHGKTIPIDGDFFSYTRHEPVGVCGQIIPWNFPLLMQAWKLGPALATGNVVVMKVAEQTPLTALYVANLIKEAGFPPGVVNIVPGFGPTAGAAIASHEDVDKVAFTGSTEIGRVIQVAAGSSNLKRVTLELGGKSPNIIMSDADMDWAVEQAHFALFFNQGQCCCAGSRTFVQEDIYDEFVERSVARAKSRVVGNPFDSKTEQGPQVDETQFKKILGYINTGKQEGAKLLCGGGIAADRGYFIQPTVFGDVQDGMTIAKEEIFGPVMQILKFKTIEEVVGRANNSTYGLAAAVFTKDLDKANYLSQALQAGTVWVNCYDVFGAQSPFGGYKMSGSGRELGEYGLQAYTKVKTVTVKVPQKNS
# ASSAY_PROCEDURE: ALDH2 enzymatic assay (NADH at 340 nm), recombinant mutant enzyme
# Type: biochemical
# Design: key: −: no activation or inhibition; +: activation less than control 1; ++: activation similar to control 1, within 10%; +++: activation more than control 1 and less than control (compound 161); ++++: activation similar to compound 161, within 10%
# EXPERIMENTAL_SETUP: activation relative to benchmarks control 1 and compound 161
PROPERTY_LABEL: ALDH2 (mutant)

Look over these answered cases.
>>> print(df.to_string())
                                   molecule  property_label  reported_result
0  COC(=O)c1cccc(Oc2cccc(Cl)c2C(=O)NCc2ccc(OC)c(F)c2)c1  ALDH2 (mutant)                +
1   COc1ccc(CNC(=O)c2c(Cl)cccc2NCC2CC2)cc1F  ALDH2 (mutant)              +++
2  O=C(NCc1ccc2c(c1)CCCO2)c1c(Cl)ccnc1OCC1CC1  ALDH2 (mutant)                +
3  O=C1OCc2cc(CNC(=O)c3c(Cl)ccnc3OCC3CC3)ccc21  ALDH2 (mutant)                −

Okay, next one:
Quick one: ALDH2 (mutant) for CCOc1cccc(Cl)c1C(=O)NCc1ccc(OC)c(F)c1 ? +++

----------
# TESTED_SYSTEM: human ALDH2*2 recombinant mutant enzyme (E487K) (Homo sapiens, UniProt P05091, E504K)
# Construct: His-tag (pTrcHis vector) (N); made in house; host or cells: E. coli BL21
# Sequence (P05091 18-517 E504K): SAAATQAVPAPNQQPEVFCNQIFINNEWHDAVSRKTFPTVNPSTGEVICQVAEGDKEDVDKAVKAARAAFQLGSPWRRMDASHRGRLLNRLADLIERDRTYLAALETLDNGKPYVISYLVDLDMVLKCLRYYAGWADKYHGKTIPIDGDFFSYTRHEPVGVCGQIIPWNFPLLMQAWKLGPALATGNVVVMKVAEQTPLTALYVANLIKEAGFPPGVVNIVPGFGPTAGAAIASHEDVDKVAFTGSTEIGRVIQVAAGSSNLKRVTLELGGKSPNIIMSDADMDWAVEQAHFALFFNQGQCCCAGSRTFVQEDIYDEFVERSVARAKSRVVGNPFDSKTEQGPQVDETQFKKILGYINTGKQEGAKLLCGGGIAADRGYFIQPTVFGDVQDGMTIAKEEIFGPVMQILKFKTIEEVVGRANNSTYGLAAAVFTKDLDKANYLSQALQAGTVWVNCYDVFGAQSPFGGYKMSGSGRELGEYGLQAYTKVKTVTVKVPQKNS
# ASSAY_PROCEDURE: ALDH2 enzymatic assay (NADH at 340 nm), recombinant mutant enzyme
# Assay type: biochemical
# Design: key: −: no activation or inhibition; +: activation less than control 1; ++: activation similar to control 1, within 10%; +++: activation more than control 1 and less than control (compound 161); ++++: activation similar to compound 161, within 10%
# EXPERIMENTAL_SETUP: activation relative to benchmarks control 1 and compound 161
PROPERTY_LABEL: ALDH2 (mutant)

Look over these answered cases.
>>> print(df.to_string())
                                   compound                             tested_system  reported_result
0    COc1ccc(CNC(=O)c2c(Cl)ccnc2OC2CC2)cc1F  human ALDH2*2 recombinant mutant enzyme (E487K) (Homo sapiens, UniProt P05091, E504K)               ++
1   COc1ccc(CNC(=O)c2c(Cl)ccnc2SCC(C)C)cc1F  human ALDH2*2 recombinant mutant enzyme (E487K) (Homo sapiens, UniProt P05091, E504K)                +
2  O=C(NCc1ccc(=O)[nH]c1)c1c(Cl)ccnc1OCC1CC1  human ALDH2*2 recombinant mutant enzyme (E487K) (Homo sapiens, UniProt P05091, E504K)                +
3          COc1ccc(CNC(=O)c2ccc(Br)cc2C)cc1  human ALDH2*2 recombinant mutant enzyme (E487K) (Homo sapiens, UniProt P05091, E504K)                +
4  COc1ccc(CN(C)C(=O)c2c(Cl)ccnc2OCC2CC2)cc1F  human ALDH2*2 recombinant mutant enzyme (E487K) (Homo sapiens, UniProt P05091, E504K)                −
5  COc1ccc(CNC(=O)c2c(Cl)cccc2NCC(C)O)cc1F (stereo not drawn)  human ALDH2*2 recombinant mutant enzyme (E487K) (Homo sapiens, UniProt P05091, E504K)               ++
6  Cc1nc2ccc(CNC(=O)c3c(Cl)ccnc3OCC3CC3)cc2[nH]1  human ALDH2*2 recombinant mutant enzyme (E487K) (Homo sapiens, UniProt P05091, E504K)                +
7  O=C(NCc1ccc([N+](=O)[O-])cc1)c1c(Cl)cccc1Br  human ALDH2*2 recombinant mutant enzyme (E487K) (Homo sapiens, UniProt P05091, E504K)                +

Okay, next one:
Quick one: ALDH2 (mutant) for COc1ccc(CNC(=O)c2c(OC)ccnc2OCC2CC2)cc1F ? +

The reported measurements were obtained from patent US9670162B2.
